Biological target: IRAK-4 (Homo sapiens)
Sequence (Q9NWZ3 whole entry): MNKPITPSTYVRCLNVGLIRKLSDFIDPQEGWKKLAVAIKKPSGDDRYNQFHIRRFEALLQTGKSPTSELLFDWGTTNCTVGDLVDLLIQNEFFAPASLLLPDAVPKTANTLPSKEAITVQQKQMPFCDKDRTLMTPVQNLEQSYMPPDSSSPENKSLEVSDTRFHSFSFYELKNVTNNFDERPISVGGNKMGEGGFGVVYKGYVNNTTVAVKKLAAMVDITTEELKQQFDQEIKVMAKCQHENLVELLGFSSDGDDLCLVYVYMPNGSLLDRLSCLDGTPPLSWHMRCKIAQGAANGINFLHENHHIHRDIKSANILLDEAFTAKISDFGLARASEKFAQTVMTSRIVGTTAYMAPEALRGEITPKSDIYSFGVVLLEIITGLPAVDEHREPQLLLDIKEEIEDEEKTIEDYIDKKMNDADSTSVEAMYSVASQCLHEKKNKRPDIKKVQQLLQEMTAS
Test: IRAK-4 ELISA, OCI-Ly10 degradation
Assay type: cell-based
Design: endogenous in cells
Details: OCI-Ly10, OCI-Ly10 cells, treated overnight
So I've got a bunch of compounds here, and I need their Dmax values.

# example entries with known answers
INSERT INTO results (compound, system_name, test_result) VALUES
  ('O=C1CCC(N2C(=O)c3ccc(N4CCC([C@H](F)Cn5cc6cc(NC(=O)c7cnn8cccnc78)c(OCC7CC7)cc6n5)CC4)cc3C2=O)C(=O)N1 (stereo partly drawn)', 'IRAK-4 (Homo sapiens)', '70 to 80%'),
  ('CC(C)Oc1cc2c(cc1NC(=O)c1cnn3cccnc13)CN(C1CCN(CC3(F)CCN(c4ccc5c(c4)C(=O)N(C4CCC(=O)NC4=O)C5=O)CC3)CC1)C2=O (stereo not drawn)', 'IRAK-4 (Homo sapiens)', '≥ 90%'),
  ('O=C1CCC(N2Cc3cc(N4CC(CN5CCC(N6Cc7cc(NC(=O)c8cnn9cccnc89)c(N8CCC(N9CCC9)CC8)cc7C6=O)CC5)C4)ccc3C2=O)C(=O)N1 (stereo not drawn)', 'IRAK-4 (Homo sapiens)', '≥ 90%'),
  ('O=C1CCC(N2C(=O)c3ccc(N4CCC(F)(CN5CCC(N6Cc7cc(NC(=O)c8cnn9cccnc89)c(OCC8CC8)cc7C6=O)CC5)CC4)cc3C2=O)C(=O)N1 (stereo not drawn)', 'IRAK-4 (Homo sapiens)', '80 to 90%'),
  ('O=C1CCC(N2C(=O)c3ccc(N4CC(CN5CCC(N6Cc7cc(NC(=O)c8cnn9cccnc89)c(OCC8CC8)cc7C6=O)CC5)C4)cc3C2=O)C(=O)N1 (stereo not drawn)', 'IRAK-4 (Homo sapiens)', '≥ 90%');

The record that follows has no Dmax shown yet.
Tell us which Dmax value is on record for O=C1CCC(N2C(=O)c3ccc(OCCN4CCC(n5cc6cc(NC(=O)c7cnn8cccnc78)c(OCC7CC7)cc6n5)CC4)cc3C2=O)C(=O)N1 (stereo not drawn)
70 to 80%

###

So I've got a bunch of compounds here, and I need their IC50 values.
Test system: IL6
Assay: R848 stimulated IL6 inhibition assay in PBMC
Assay type: cell-based
Conditions: PBMC; human PBMCs, R848 stimulation, compound overnight, IL6 by MSD after 24 hrs; read-out: R848 stim IL6 inhibition IC50

# example entries with known answers
INSERT INTO results (compound, test_result) VALUES
  ('CC(C)Oc1cc2c(cc1NC(=O)c1cnn3cccnc13)CN(C1CCN(CC3CN(c4cccc5c4n(C)c(=O)n5C4CCC(=O)NC4=O)C3)CC1)C2=O (centres unmarked)', '10 to 50 nM'),
  ('CN(C1CN(c2ccc3c(c2)CN(C2CCC(=O)NC2=O)C3=O)C1)[C@H]1CC[C@H](n2cc3cc(NC(=O)c4cnn5cccnc45)c(OCC(F)F)cc3n2)CC1 (some centres unmarked)', '10 to 50 nM'),
  ('COc1c(N2CC(F)(CN3CCC(n4cc5cc(NC(=O)c6cnn7cccnc67)c(OCC6CC6)cc5n4)CC3)C2)ccc2c1C(=O)N(C1CCC(=O)NC1=O)C2=O (centres unmarked)', '< 10 nM'),
  ('O=C1CCC(N2Cc3cc(N4CCC(O)(CN5CCC(n6cc7cc(NC(=O)c8cnn9cccnc89)c(OCC8CC8)cc7n6)CC5)CC4)ccc3C2=O)C(=O)N1 (centres unmarked)', '10 to 50 nM'),
  ('O=C1CCC(N2Cc3ccc(N4CCC(CN5CCC(N6Cc7cc(NC(=O)c8cnn9cccnc89)c(OCC(F)F)cc7C6=O)CC5)CC4)cc3C2=O)C(=O)N1 (centres unmarked)', '< 10 nM');

Please look at the items below and tell me IC50 for each one, in order.
1. O=C1CCC(N2Cc3c(ccc(N4CC(F)(CN5CCC(n6cc7cc(NC(=O)c8cnn9cccnc89)c(OCC(F)F)cc7n6)CC5)C4)c3F)C2=O)C(=O)N1 (centres unmarked)
2. O=C1CCC(N2Cc3c(ccc(N4CCC(CN5CCC(n6cc7cc(NC(=O)c8cnn9cccnc89)c(OCC8CC8)cc7n6)CC5)CC4)c3F)C2=O)C(=O)N1 (centres unmarked)
3. O=C1CCC(N2C(=O)c3ccc(N4CCC(CN5CCC(n6cc7cc(NC(=O)c8cnn9cccnc89)c(N8CCC(N9CCC9)CC8)cc7n6)CC5)CC4)cc3C2=O)C(=O)N1 (centres unmarked)
4. O=C1CCC(NC(=O)c2cc(N3CC(CN4CCC(n5cc6cc(NC(=O)c7cnn8cccnc78)c(OCC7CC7)cc6n5)CC4)C3)ccc2F)C(=O)N1 (centres unmarked)

10 to 50 nM
< 10 nM
10 to 50 nM
≥ 100 nM

Please look at the items below and tell me IC50 for each one, in order.
1. COc1cc(N2CC(F)(CN3CCC(n4cc5cc(NC(=O)c6cnn7cccnc67)c(OC(C)C)nc5n4)CC3)C2)cc2c1C(=O)N(C1CCC(=O)NC1=O)C2=O (centres unmarked)
2. O=C1CCC(N2Cc3ccc(N4CC(F)(CN5CCC(n6cc7cc(NC(=O)c8cnn9cccnc89)c(OCC8CC8)cc7n6)CC5)C4)cc3C2=O)C(=O)N1 (centres unmarked)

1: 10 to 50 nM; 2: < 10 nM

###

Test system: IL6
Test: R848 stimulated IL6 inhibition assay in PBMC
Format: cell-based
Conditions: PBMC; human PBMCs, R848 stimulation, compound overnight, IL6 by MSD after 24 hrs; read-out: R848 stim IL6 inhibition IC50
Parameter Measured: IC50

# example entries with known answers
INSERT INTO measurements (molecule, system_name, parameter_measured, test_result) VALUES
  ('CC(C)Oc1cc2c(cc1NC(=O)c1cnn3cccnc13)CN(C1CCN(CC3CCN(c4ccc5c(c4F)CN(C4CCC(=O)NC4=O)C5=O)CC3)CC1)C2=O (stereo not drawn)', 'IL6', 'IC50', '< 10 nM'),
  ('C=C(CN1CCC(N2Cc3cc(NC(=O)c4cnn5cccnc45)c(OC(C)C)cc3C2=O)CC1)C1CCN(c2ccc3c(c2)C(=O)N(C2CCC(=O)NC2=O)C3=O)CC1 (stereo not drawn)', 'IL6', 'IC50', '10 to 50 nM'),
  ('O=C1CCC(N2Cc3cc(F)c(N4CC(F)(CN5CCC(n6cc7cc(NC(=O)c8cnn9cccnc89)c(OCC8CC8)cc7n6)CC5)C4)cc3C2=O)C(=O)N1 (stereo not drawn)', 'IL6', 'IC50', '10 to 50 nM'),
  ('O=C1CCC(N2C(=O)c3ccc(N4CC(F)(CN5CCC(n6cc7cc(NC(=O)c8cnn9cccnc89)c(N8CCC(N9CCC9)CC8)cc7n6)CC5)C4)cc3C2=O)C(=O)N1 (stereo not drawn)', 'IL6', 'IC50', '10 to 50 nM'),
  ('O=C1CCC(N2Cc3cc(N4CCC(CN5CCC(N6Cc7cc(NC(=O)c8cnn9cccnc89)c(N8CCN(CC(F)F)CC8)cc7C6=O)CC5)CC4)ccc3C2=O)C(=O)N1 (stereo not drawn)', 'IL6', 'IC50', '10 to 50 nM');

Please look at the items below and tell me IC50 for each one, in order.
1. O=C1CCC(N2Cc3ccc(N4CCC(CN5CCC(N6Cc7cc(NC(=O)c8cnn9cccnc89)c(N8CCC(N9CCC9)CC8)cc7C6=O)CC5)CC4)cc3C2=O)C(=O)N1 (stereo not drawn)
2. O=C1CCC(N2C(=O)c3ccc(N4CCC(O)(CN5CCC(n6cc7cc(NC(=O)c8cnn9cccnc89)c(OCC8CC8)cc7n6)CC5)CC4)cc3C2=O)C(=O)N1 (stereo not drawn)
3. CC(C)Oc1cc2c(cc1NC(=O)c1cnn3cc(Cl)cnc13)CN(C1CCN(CC3CCN(c4ccc5c(c4)C(=O)N(C4CCC(=O)NC4=O)C5=O)CC3)CC1)C2=O (stereo not drawn)
4. CC(C)Oc1cc2c(cc1NC(=O)c1cnn3cccnc13)CN(C1CCN(CC3CCN(c4ccc5c(c4)C(=O)N(C4CCC(=O)NC4=O)C5=O)CC3)CC1)C2=O (stereo not drawn)

1. < 10 nM
2. 10 to 50 nM
3. 10 to 50 nM
4. < 10 nM

###

Molecular target: UniProt:Q9NWZ3
Assay: IRAK-4 ELISA, OCI-Ly10 degradation
Format: cell-based
Set-up: endogenous in cells
Conditions: OCI-Ly10 cells, treated overnight
Parameter Measured: DC50

# example entries with known answers
INSERT INTO measurements (compound, parameter_measured, test_result) VALUES
  ('COc1cc2nn(C[C@@H](F)COCC3CCN(c4ccc5c(c4)C(=O)N(C4CCC(=O)NC4=O)C5=O)CC3)cc2cc1NC(=O)c1cnn2cccnc12 (stereo partly drawn) [Example 213]', 'DC50', '≥ 100 nM'),
  ('CC(C)Oc1cc2c(cc1NC(=O)c1cnn3cccnc13)CN([C@H]1CC[C@H](N(C)C3CN(c4ccc5c(c4)C(=O)N(C4CCC(=O)NC4=O)C5=O)C3)CC1)C2=O (stereo partly drawn) [Example 313]', 'DC50', '< 10 nM'),
  ('O=C1CCC(N2C(=O)c3ccc(CCN4CCC(N5Cc6cc(NC(=O)c7cnn8cccnc78)c(N7CCOCC7)nc6C5=O)CC4)cc3C2=O)C(=O)N1 (stereo not drawn) [Example 405]', 'DC50', '≥ 100 nM'),
  ('CC(C)Oc1cc2c(cc1NC(=O)c1cnn3cccnc13)CN(C1CCN(CC3CN(c4ccc5c(c4)C(=O)N(C4CCC(=O)NC4=O)C5=O)C3)CC1)C2=O (stereo not drawn) [Example 5]', 'DC50', '< 10 nM'),
  ('COc1cc2nn(C3CN(CC4CCN(c5ccc6c(c5)C(=O)N(C5CCC(=O)NC5=O)C6=O)CC4)C3)cc2cc1NC(=O)c1cnn2cccnc12 (stereo not drawn) [Example 146]', 'DC50', '≥ 100 nM');

The record that follows has no DC50 shown yet.
Tell us which DC50 value is on record for COc1cc2nn(C3CCN(CC4CN(c5ccc6c(c5)n(C)c(=O)n6C5CCC(=O)NC5=O)C4)CC3)cc2cc1NC(=O)c1cnn2cccnc12 (stereo not drawn) [Example 380]
≥ 100 nM
